Each entry below carries its recorded pEC50.
- Assayed target: PPAR-gamma (Homo sapiens, UniProt P37231)
- Sequence (P37231 whole entry): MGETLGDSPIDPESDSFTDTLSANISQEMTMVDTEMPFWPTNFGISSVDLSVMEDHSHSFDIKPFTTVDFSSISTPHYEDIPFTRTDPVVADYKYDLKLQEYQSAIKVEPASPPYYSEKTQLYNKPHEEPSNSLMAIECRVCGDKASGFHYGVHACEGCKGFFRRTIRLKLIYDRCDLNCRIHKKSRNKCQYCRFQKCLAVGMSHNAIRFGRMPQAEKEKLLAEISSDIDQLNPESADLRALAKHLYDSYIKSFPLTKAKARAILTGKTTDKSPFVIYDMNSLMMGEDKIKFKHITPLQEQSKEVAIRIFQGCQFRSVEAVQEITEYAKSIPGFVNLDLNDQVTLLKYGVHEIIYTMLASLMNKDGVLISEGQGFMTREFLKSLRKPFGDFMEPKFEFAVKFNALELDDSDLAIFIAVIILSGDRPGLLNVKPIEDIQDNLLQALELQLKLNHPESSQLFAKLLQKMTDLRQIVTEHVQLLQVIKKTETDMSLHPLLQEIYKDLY
- Protocol description: Reporter gene assay in transfected HepG2 cells: transcriptional activation of a PPRE via a PPAR-gamma mediated pathway
- Test parameters: transfected human hepatoma (HepG2) cells, 36-48 h exposure, reporter gene activity
pEC50: −log10 of the molar value.

Compound: CCCC[C@H]1C(=O)N(Cc2cc(OC)cc(OC)c2)CC(CC(=O)NC)N1C(=O)NC1CCCCC1 (some centres unmarked) [Example 41]
Assayed target: PPAR-gamma (Homo sapiens, UniProt P37231)
Limit qualifier: =
pEC50: 5.63
//
Compound: CCNC(=O)CC1CN(Cc2cc(OC)cc(OC)c2)C(=O)[C@H](CC(C)C)N1C(=O)NC1CCCCC1 (some centres unmarked) [Example 42]
Assayed target: PPAR-gamma (Homo sapiens, UniProt P37231)
Limit qualifier: =
pEC50: 6.60
//
Compound: CNC(=O)CC1CN(Cc2cc(OC)cc(OC)c2)C(=O)[C@H](CC(C)C)N1C(=O)NC1CCCCC1 (some centres unmarked) [Example 32]
Assayed target: PPAR-gamma (Homo sapiens, UniProt P37231)
Limit qualifier: =
pEC50: 6.21
//
Compound: COc1cc(CN2CC(CC(=O)NCCO)N(C(=O)NC3CCCCC3)[C@@H](CC(C)C)C2=O)cc(OC)c1 (some centres unmarked) [Example 43]
Assayed target: PPAR-gamma (Homo sapiens, UniProt P37231)
Limit qualifier: <
pEC50: 6.00
//
Compound: CCCCNC(=O)CC1CN(Cc2cc(OC)cc(OC)c2)C(=O)[C@H](CC(C)C)N1C(=O)NC1CCCCC1 (some centres unmarked) [Example 35]
Assayed target: PPAR-gamma (Homo sapiens, UniProt P37231)
Limit qualifier: =
pEC50: 6.92
